- Test system: Mythimna separata
- Experiment Description: Insecticidal activity against third-instar larvae of Mythimna separata (Oriental armyworm) assessed as mortality after 72 hr by spray method
- Assay type: functional
Exercise: for every item that follows, state its recorded LC50.
State the answer as a number, implicitly in µg/mL.

Asked: # value lookup — system Mythimna separata, readout LC50, item Cc1cc(C)c(C2=C(OC(=O)CC(C)(C)C)C3(CCCC3)OC2=O)c(C)c1
Given back: 101

Asked: Another: CCCCCCC(=O)C1=C(c2c(C)cc(C)cc2C)C(=O)OC12CCCC2
Given back: 101

Asked: Another: CCCC(=O)C1=C(c2c(C)cc(C)cc2C)C(=O)OC12CCCC2
Given back: 26

Asked: Another: CCCCCC(=O)C1=C(c2c(C)cc(C)cc2C)C(=O)OC12CCCC2
Given back: 26

Asked: Another: Cc1cc(C)c(C2=C(C(=O)c3ccc(F)cc3)C3(CCCC3)OC2=O)c(C)c1
Given back: 101

Asked: Another: C=CC(=O)C1=C(c2c(C)cc(C)cc2C)C(=O)OC12CCCC2
Given back: 26

Asked: Another: Cc1cc(C)c(C2=C(C(=O)c3ccccc3C)C3(CCCC3)OC2=O)c(C)c1
Given back: 26

Asked: Another: COc1ccc(C(=O)C2=C(c3c(C)cc(C)cc3C)C(=O)OC23CCCC3)cc1
Given back: 26

Asked: Another: Cc1cc(C)c(C2=C(C(=O)/C=C/c3ccccc3)C3(CCCC3)OC2=O)c(C)c1
Given back: 26

Asked: Another: CCCCC(=O)C1=C(c2c(C)cc(C)cc2C)C(=O)OC12CCCC2
Given back: 26

Asked: Another: CO/N=C(/C(=O)C1=C(c2c(C)cc(C)cc2C)C(=O)OC12CCCC2)c1ccccc1
Given back: 26

Asked: Another: Cc1cc(C)c(C2=C(C(=O)C(c3ccc(Cl)cc3)C(C)C)C3(CCCC3)OC2=O)c(C)c1 (configuration not stated)
Given back: 401

Asked: Another: Cc1cc(C)c(C2=C(C(=O)CC(C)(C)C)C3(CCCC3)OC2=O)c(C)c1
Given back: 101

Asked: Another: CCC(C)(C)C(=O)C1=C(c2c(C)cc(C)cc2C)C(=O)OC12CCCC2
Given back: 101

Asked: Another: C/C=C/C(=O)C1=C(c2c(C)cc(C)cc2C)C(=O)OC12CCCC2
Given back: 101

Asked: Another: Cc1cc(C)c(C2=C(C(=O)c3ccccc3Cl)C3(CCCC3)OC2=O)c(C)c1
Given back: 26

Asked: Another: Cc1cc(C)c(C2=C(C(=O)C3C(C=C(Cl)Cl)C3(C)C)C3(CCCC3)OC2=O)c(C)c1 (configuration not stated)
Given back: 401

Asked: Another: CCC(=O)C1=C(c2c(C)cc(C)cc2C)C(=O)OC12CCCC2
Given back: 101
